studyTarget: human plasma-derived FIXa (Haematologic Technologies Inc) (human, UniProt P00740 47-191; P00740 227-461)
Sequence (P00740 47-191, chain 1 of 2): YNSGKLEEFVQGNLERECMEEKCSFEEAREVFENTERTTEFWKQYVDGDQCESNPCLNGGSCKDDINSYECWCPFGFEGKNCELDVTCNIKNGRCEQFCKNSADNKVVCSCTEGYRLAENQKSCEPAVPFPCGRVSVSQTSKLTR
Sequence (P00740 227-461, chain 2 of 2): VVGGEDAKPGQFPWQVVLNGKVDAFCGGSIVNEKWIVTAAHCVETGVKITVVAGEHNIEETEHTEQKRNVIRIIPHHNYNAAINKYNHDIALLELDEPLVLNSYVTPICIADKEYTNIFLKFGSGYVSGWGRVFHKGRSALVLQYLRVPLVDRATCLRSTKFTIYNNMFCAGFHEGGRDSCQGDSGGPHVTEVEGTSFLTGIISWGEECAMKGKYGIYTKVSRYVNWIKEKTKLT
protocol: cell-based or functional assay

# binder, FXa generation rate at 50 nM mAb / pM/min
measured = [
    ("mAb1-4707 (antibody, V domains shown) VH: EVQLVESGGGLVQPGRSLRLSCAASGFTFGDYAMHWVRQAPGKGLEWVSGISWVSGSIGYARSVKGRFTISRDNAKNSLYLQMNSLRAEDTALYYCAKGQYDEDAGMDVWGQGTTVTVSS VL: DIQMTQSPSSLSASVGDRVTITCRASQSIRSYLNWYQQKPGKAPKLLIYAASSLQSGVPSRFSGSGSGTDFTLTISSLQPEDFATYYCQQGYPTWTFGGGTKVEIK", 629),
    ("mAb1-4857 (antibody, V domains shown) VH: EVQLVESGGGLVQPGRSLKLSCAASGFTFDDYAMHWVRQVPGKGLEWVSGISWRGDIIGYVDSVKGRFTISRDNAKNSLYLQLNSLRAEDTALYYCVKSYGSGSFYNAFDSWGQGTLVTVSS VL: DIQMTQSPSTLSASAGDRVTITCRASQSISSWLAWYQQKPGKAPKFLIYKASRLERGVPSRFSGSGSGTEFSLTISSLQPDDFATYYCLEYSSYIRTFGQGTKVEIK", 1190),
    ("mAb1-4763 (antibody, V domains shown) VH: EVQLVESGGGLVQPGRSLRLSCAASGFTFGDYAMHWVRQAPGKGLEWVSGISWNSGSIGYAKSVKGRFTISRDNAKNSLYLQMNSLRAEDTALYYCAKGQYDEDAGMDVWGQGTTVTVSS VL: DIQMTQSPSSLSASVGDRVTITCRASQWISSYLNWYQQKPGKAPKLLIYAASSLPSGVPSRFSGSGSGTDFTLTISSLQPEDFATYYCQQGYPTWTFGGGTKVEIK", 369),
    ("mAb1-4861 (antibody, V domains shown) VH: EVQLVESGGGLVQPGRSLKLSCAASGFTFDDYAMHWVRQVPGKGLEWVSGISWNGDNIGYVDSVKGRFTISRDNAKNSLYLQLNSLRAEDTALYYCVKSYGSGSFYNAFDSWGQGTLVTVSS VL: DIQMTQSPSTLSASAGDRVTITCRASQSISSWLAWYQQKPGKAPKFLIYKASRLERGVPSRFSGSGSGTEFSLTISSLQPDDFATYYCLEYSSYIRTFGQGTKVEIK", 352),
]
